The measured values listed here are drawn from PubChem BioAssay (NCI).

Test system: HCC-2998 colon
Test summary: NCI-60 one-dose screen, 48 h
Measurement parameters: 10 µM unless noted
The panel holds about 83,000 compounds, 20% with a hit somewhere; the sample as a whole holds those more often. The source made the active and inactive calls. The calls were made as follows: active = growth percent below 10; inactive = the rest.
Return exactly one item of active, inactive

State the result this test recorded for `O=C(Nc1ccccc1)Nc1ccc(C(=O)/C=C/c2ccc(N3CCCC3)cc2)cc1` .
inactive

State the result this test recorded for `N#C/C(C(=O)c1ccccc1)=C1/C(=O)Nc2ccccc21` .
inactive

State the result this test recorded for `O=c1cc(-c2ccccc2)oc2c(O)c(O)ccc12` .
inactive

State the result this test recorded for `COc1cc(C(=O)/C=C/c2c(-c3ccc(F)cc3)nc3sccn23)cc(OC)c1OC` .
inactive

State the result this test recorded for `COC(=O)[C@]1(C)CC[C@]2(C)CC[C@]3(C)C(=CC(=O)[C@@H]4[C@@]5(C)CCC(=O)NC(C)(C)[C@@H]5CC[C@]43C)[C@@H]2C1` .
active

State the result this test recorded for `Cc1cccc(C[C@H](NC(=O)Nc2ccc(Cl)cc2F)C(=O)N[C@@H]2C(=O)N3C[C@H](O)C[C@H]3C(=O)N3CCN(C)C[C@H]3C(=O)N[C@@H](C)C(=O)N3C[C@H](C)C[C@H]3C(=O)O[C@H]2C)c1` .
inactive

State the result this test recorded for `O=C1/C(=C/c2cccc(OCc3ccccc3)c2)Oc2cc(OCCN3CCCCC3)ccc21` .
inactive

State the result this test recorded for `O=C(CSc1nc2ccc([N+](=O)[O-])cc2[nH]1)Nc1ccc(F)c(Cl)c1` .
inactive
